// provenance: patent US20130035326A1

Target or system FLT3 kinase (Homo sapiens, UniProt P36888); recorded quantity pKd.
pKd: −log10 of the molar value.

Give pKd for CC(C)(C)c1cc(NC(=O)Cc2ccc(-c3cnc4c(c3)CCCN4)cc2)no1 [Example 120, methanesulfonate]
≥ 9.00

Give the measured pKd for Cc1nc(N)ccc1-c1ccc(CC(=O)Nc2cc(C(C)(C)C)on2)cc1 [Example 87, methanesulfonate]
≥ 9.00

Tell me its pKd given CS(=O)(=O)O.Nc1ncc(-c2ccc(CC(=O)Nc3cc(C4(C(F)(F)F)CC4)on3)cc2)cc1F as the entry.
≥ 9.00

Provide one value: measured pKd of CC(C)(C)c1cc(NC(=O)Nc2ccc(-c3cnc(N)nc3)cc2)no1
≥ 9.00

Give pKd for the following compound: CC(CF)(CF)c1cc(NC(=O)Nc2ccc(-c3ccc(N)nc3)cc2)no1 [Example 34, methanesulfonate]
≥ 9.00

Give recorded pKd. CN(C)CCNc1ncc(-c2ccc(NC(=O)Nc3cc(C(C)(C)C)on3)cc2)cn1
≥ 9.00
